experiment: plasma stability in human plasma; format: in vitro ADME; conditions: human plasma
Measurement Label: half-life

Looking up CC(=O)N[C@@H](Cc1ccccc1)C(=O)N[C@@H](CCC(N)=O)C(=O)N[C@@H](CO)C(=O)N[C@@H](CCCCN)C(=O)NCC(=O)N[C@@H](CC(N)=O)C(=O)N[C@H](C(=O)N[C@@H](Cc1ccccc1)C(=O)N[C@H](C(=O)N[C@@H](CC(=O)O)C(=O)NCC(=O)N[C@@H](Cc1ccc(O)cc1)C(=O)N[C@@H](Cc1ccccc1)C(=O)N[C@@H](CCC(=O)O)C(=O)N[C@@H](CCCNC(=N)N)C(=O)N[C@@H](CC(C)C)C(=O)NC(C)(C)C(=O)N[C@@H](C)C(=O)N[C@@H](CCCCN)C(=O)N[C@@H](CC(C)C)C(N)=O)C(C)C)C(C)C [JBT0740] , I found its half-life recorded as > 2 h
